The reported numbers originate from PubChem BioAssay (NCATS).

System: CRL-7250
protocol: Cytotoxic Profiling of Annotated Libraries Using Quantitative High-Throughput Screening (AID 1296008); further: on the % scale 0 is the no-effect control and ±100 the full control effect
assay-setup: Five cell lines viability, CellTiter-Glo ATP luminescence, 48-72 h; stronger effect = lower value
Inconclusive results are not listed.
Assign max response to each entry below.
Answers are plain numbers, in %.

Take a look at these entries with their results.
1) OC[C@@]1(O)CO[C@H](OC[C@H]2O[C@@H](OCCc3ccccc3)[C@H](O)[C@@H](O)[C@@H]2O)[C@@H]1O	-3.48
2) Nc1nc(COC(=O)c2ccc([N+](=O)[O-])cc2)nc(Nc2ccccc2)n1	-7.38
3) C[C@H]1CC[C@@]2(OC1)O[C@H]1CC3C4CC[C@H]5C[C@@H](O)CC[C@]5(C)C4CC(=O)[C@]3(C)[C@H]1[C@@H]2C (some centres undefined)	2.1

# ---- query molecule ----
Short answer please: max response, CRL-7250, entry C=CCc1cc(OC)c(OC(C)C(O)c2ccc(O)c(OC)c2)c(OC)c1 (centres undefined)
-6.23
